These measurements were taken from patent US20250353873A1.

// APOE RNA (% UTC) lookup, one value per entry
system: human APOE RNA; assay: Dose-dependent reduction of human APOE RNA in HepG2 cells, electroporation, 20,000 cells per well, average of GAPDH- and PPIA-normalized results (Example 4, Table 12); format: cell-based; conditions: 13 nM, HepG2, 20,000 cells per well
Strand notation (5' to 3'): a small letter for the sugar, then the base; units joined by * are phosphorothioate-linked, units joined directly phosphodiester-linked; [ ] holds rarer units or linkages, { } end groups; capitals alone tell only the bases. [ms] = mesyl phosphoramidate linkage; e = 2'-O-(2-methoxyethyl) (MOE); k = constrained ethyl (cEt); [5mC] = 5-methylcytosine; d = 2'-deoxy (DNA)

{"columns": ["Substance", "APOE RNA (% UTC)"],
 "data": [
  ["1778130: modified oligonucleotide complementary to human APOE RNA (eA*e[5mC]eTeTeG*kG*dT*dG[ms]dA[ms]dA*dT*d[5mC]*dT*dT*dT*dA[ms]kTkT*eA*eA; antisense) [compound 1778130]", "100 % UTC"],
  ["1785598: modified oligonucleotide complementary to human APOE RNA (k[5mC]*kT*kT*dG[ms]dG[ms]dT[ms]dG[ms]dA[ms]dA[ms]dT*d[5mC]*dT*dT*dT*dA*dT[ms]kT*kA*dA[ms]kA; antisense) [compound 1785598]", "97 % UTC"],
  ["1746809 (k[5mC]*dT[ms]kT*dG[ms]kG*dT[ms]dG[ms]dA[ms]dA[ms]dT*d[5mC]*dT*dT*dT*dA[ms]dT*dT[ms]kA*kA*kA; antisense) [Compound 1746809]", "94 % UTC"],
  ["1785599: modified oligonucleotide complementary to human APOE RNA (k[5mC]*kT*kT*dG[ms]dG[ms]dT[ms]dG[ms]dA[ms]dA[ms]dT[ms]d[5mC]*dT*dT*dT*dA*dT*kT*kA*dA[ms]kA; antisense) [compound 1785599]", "106 % UTC"],
  ["1757575 (eA*e[5mC]eTeT*kG*kG*dT*dG[ms]dA[ms]dA[ms]dT*d[5mC]*dT*dT*dT*dA[ms]kT*eT*eA*eA; antisense) [Compound 1757575]", "96 % UTC"],
  ["1778131: modified oligonucleotide complementary to human APOE RNA (eA*e[5mC]eTeTeGkG*dT*dG[ms]dA[ms]dA*dT*d[5mC]*dT*dT*dT*dA[ms]kTkT*eA*eA; antisense) [compound 1778131]", "86 % UTC"],
  ["1785617: modified oligonucleotide complementary to human APOE RNA (k[5mC]*dT[ms]dT[ms]kG*dG[ms]kT*dG[ms]dA[ms]dA[ms]dT[ms]d[5mC]*dT*dT*dT*dA*dT*kT*kA*dA[ms]kA; antisense) [compound 1785617]", "93 % UTC"]
]}

###

system: human APOE RNA; assay: Activity in APOE C57BL/6NTac-Apoeem7250 knock-in mice, single ICV bolus, 8 weeks (Example 11); format: in vivo; conditions: cortex; single ICV bolus 300 μg; 8 weeks post treatment; normalized to mouse Ppia
Strand notation (5' to 3'): a small letter for the sugar, then the base; units joined by * are phosphorothioate-linked, units joined directly phosphodiester-linked; [ ] holds rarer units or linkages, { } end groups; capitals alone tell only the bases. [ms] = mesyl phosphoramidate linkage; e = 2'-O-(2-methoxyethyl) (MOE); k = constrained ethyl (cEt); [5mC] = 5-methylcytosine; d = 2'-deoxy (DNA)
Endpoint: APOE RNA (% control) Cortex

{"columns": ["Substance", "Subject Of Test", "Endpoint", "Obs Value"],
 "data": [
  ["1778128: modified oligonucleotide complementary to human APOE RNA (eA*e[5mC]eTeTkGkG*dT*dG[ms]dA[ms]dA*dT*d[5mC]*dT*dT*dT*dA[ms]kTeT*eA*eA; antisense) [compound 1778128]", "human APOE RNA", "APOE RNA (% control) Cortex", 27],
  ["1693047: 5-10-5 MOE gapmer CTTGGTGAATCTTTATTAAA, linkages sssoszzzzssssszosss (antisense e[5mC]*eT*eT*eGeG*dT[ms]dG[ms]dA[ms]dA[ms]dT*d[5mC]*dT*dT*dT*dA[ms]eTeT*eA*eA*eA) [compound 1693047]", "human APOE RNA", "APOE RNA (% control) Cortex", 78]
]}
